Biological target: T1, mouse MuSK (mouse, UniProt Q61006 22-494, limits assumed)
T1 construct: Coated on ELISA plates or on the Biacore chip; also called full length mouse MuSK; mouse MuSK (in house produced in HEK293 cells)
T1 sequence (looked up): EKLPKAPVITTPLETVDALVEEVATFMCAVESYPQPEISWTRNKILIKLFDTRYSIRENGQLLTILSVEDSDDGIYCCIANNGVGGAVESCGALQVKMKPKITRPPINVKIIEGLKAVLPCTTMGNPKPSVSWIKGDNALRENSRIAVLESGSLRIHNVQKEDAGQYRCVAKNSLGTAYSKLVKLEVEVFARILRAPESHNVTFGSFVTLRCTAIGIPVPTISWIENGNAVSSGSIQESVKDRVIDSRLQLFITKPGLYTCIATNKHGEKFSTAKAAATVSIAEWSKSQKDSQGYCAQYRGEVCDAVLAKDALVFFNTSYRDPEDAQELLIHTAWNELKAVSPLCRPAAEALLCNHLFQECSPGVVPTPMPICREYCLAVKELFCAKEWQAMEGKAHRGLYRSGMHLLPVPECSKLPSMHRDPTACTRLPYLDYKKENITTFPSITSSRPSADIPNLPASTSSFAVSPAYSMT
Test: Biacore T200, MuSK on chip (200RU), 22.2 nM Fab, dissociation pH 7.4
measurement.label: koff (s⁻¹)
Give just the number in s⁻¹; leave the unit off.

Name the recorded koff for 3B2 Fab (Fab, V domains shown, Fab format; also called Fab 3B2) VH: ELQLVESGGGLVQPGGSLRLSCAASGFTFDDYGMSWVRQAPGKGLEWVSAIPWNGGSTYYKESVKGRFTISRDNAKKTLYLQMNSLKSEDTAVYYCAKRSGRIAFGALDAWGQGTLVTVSS VL: QAVVTQEPSLSVSPGGTVTLTCGLSSGSVTSSNYPDWYQQTPGQAPRGLIYSTDSRHSGVPSRFSGSISGNKAALTITGAQSEDEADYYCGLYMYSGSKNYVFGGGTKLTVL .
0.00347
